target: human EGFRvIII protein on the cell surface (human, UniProt P00533 25-1210); experiment: cell-based or functional assay
readout_type: IC50, nM; cell killing of U87MG-hEGFRvIII (CellTiter-Glo, 5 days) (nM)
Give the number; nM is assumed, so skip it.

Can you share its IC50, nM; cell killing of U87MG-hEGFRvIII (CellTiter-Glo, 5 days)? I mean this binder: Chimeric antibody 7E5-MMAF (antibody, human IgG1, V domains shown, MC-MMAF coupled after TCEP reduction (sites not given); DAR 3.51 for the antibody) VH: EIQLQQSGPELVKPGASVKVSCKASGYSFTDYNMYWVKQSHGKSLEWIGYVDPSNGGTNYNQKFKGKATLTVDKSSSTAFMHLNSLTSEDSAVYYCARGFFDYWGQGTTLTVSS VL: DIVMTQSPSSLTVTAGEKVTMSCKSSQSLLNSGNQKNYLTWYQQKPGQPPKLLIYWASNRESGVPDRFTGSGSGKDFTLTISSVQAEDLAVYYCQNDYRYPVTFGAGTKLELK
0.04
